Tested on: IGROV-1
Test Name: NCI tumour cell line growth inhibition, 48 h
The source made the active and inactive calls. No stated cut-off is given here; in the data, active = GI50 up to about 1.1 µM and inactive = higher.
Possible outcomes: true (active), false (inactive)

# Compound, System, Assigned Category
rows = [
    ("OCCc1ccsc1-c1sc(-c2cc(CCO)c(-c3sccc3CCO)s2)cc1CCO", "IGROV-1", "false"),
    ("Nc1nc(Cl)cc(OCC2(CO)CCCC2)n1", "IGROV-1", "false"),
    ("O=C1C(=Cc2ccc(O)cc2)N=C(c2ccccc2)N1n1c(-c2ccccc2)nc2ccccc2c1=O", "IGROV-1", "false"),
    ("C/C=C1\\C(=O)O[C@H]2C/C(C)=C/CC/C(C)=C/CC[C@@]3(C)O[C@@H]3C[C@@H]12", "IGROV-1", "false"),
    ("COC(=O)[C@@]12CC3CN(Cc4c1[nH]c1ccccc41)C2CC3=O", "IGROV-1", "false"),
    ("CC(C)(C)C(=O)OCC1CCC[N+]2(C)CCCCC12 (stereo not given)", "IGROV-1", "false"),
    ("COC(=O)/N=[N+](\\[O-])C(c1ccccc1)c1ccccc1", "IGROV-1", "false"),
    ("O=C1NC2(CCCC2)/C(=N\\O)C12CCCC2", "IGROV-1", "false"),
    ("COc1ccc(/N=N/c2ccc3oc(=O)c(C(=O)Nc4ccc(Cl)cc4)cc3c2)cc1", "IGROV-1", "false"),
    ("SC1=Nc2ccccc2-c2nc(-c3cccc(Cl)c3)cc(-c3ccccc3)c2C1", "IGROV-1", "true"),
]

* * *

Recorded GI50 values for a group of molecules are listed next.
Tested on: A498
Test Name: NCI tumour cell line growth inhibition, 48 h
Activity calls are given as the source filed them. Rule as the data show it: active = GI50 up to about 1.1 µM and inactive = higher.
Measured Quantity: GI50

# Molecule, Data Value
rows = [
    ("O=C1CSC2(CC(/C=C/c3ccccc3[N+](=O)[O-])=NN2c2cccc(S(=O)(=O)O)c2)N1c1nc2ccccc2s1 (centres undefined)", "18.2 µM (inactive)"),
    ("CC(=O)c1ccc(-c2oc(-c3ccccc3)cc2-c2ccc3c(c2)OCO3)s1", "> 100 µM (inactive)"),
    ("COc1ccc(-c2nc(N)c(C#N)c3c2CCSc2ccc(C)cc2-3)cc1OC", "22.5 µM (inactive)"),
    ("CC(=O)O[C@H]1CC[C@@H](OC(C)=O)[C@H]2[C@H](O)[C@H](O)[C@@H]1n1c(=O)n(-c3ccccc3)c(=O)n12", "> 100 µM (inactive)"),
]

* * *

Tested on: Hs-578T
Test Name: NCI tumour cell line growth inhibition, 48 h
The source made the active and inactive calls. Cut-off read from the data, not from the text of the source: active = GI50 up to about 1.1 µM and inactive = higher.
Measured Quantity: GI50

# Molecule, Data Value
measured = [
    ("COc1cc(NCCC2CCCCN2)c2ncccc2c1 (stereo unspecified)", "> 96.4 µM (inactive)"),
    ("O=C(/C=C\\c1ccc(Cl)cc1Cl)c1cccs1", "24.8 µM (inactive)"),
    ("C=C1C(=O)C[C@H]2C(=C)C(=O)O[C@@H]2C2C1CC[C@@]2(C)O (stereo partly specified)", "26.9 µM (inactive)"),
    ("CC1=NC2(CCCCC2)N(Cl)C(=O)C1SC#N (stereo unspecified)", "41 µM (inactive)"),
    ("COc1cnc2cc(C(=O)O)c3c([N+](=O)[O-])cccc3c2c1", "> 100 µM (inactive)"),
    ("O=c1[nH]c(=S)[nH]cc1CN1CCOCC1", "> 100 µM (inactive)"),
]

* * *

Tested on: COLO 205
Test Name: NCI tumour cell line growth inhibition, 48 h
Calls of active or inactive are those of the source. Cut-off read from the data, not from the text of the source: active = GI50 up to about 1.1 µM and inactive = higher.
Recorded GI50 values for a group of compounds are listed next.

# Compound, GI50
data = [
    ("COc1c(-c2cccs2)oc2c(CC(=O)O)cccc2c1=O", "> 100 µM (inactive)"),
    ("COc1ccc(S(=O)(=O)O)cc1-n1nc(C(=O)Nc2ccccc2)n[n+]1-c1cc(S(=O)(=O)[O-])ccc1OC", "> 100 µM (inactive)"),
    ("O=c1[nH]c(=O)n(C2OC(CO)C(O)C2O)c2ccsc12 (stereo not given)", "> 100 µM (inactive)"),
    ("N#Cc1c(N2CCC(O)C2)c2ccccc2n2c1nc1ccccc12 (stereo not given)", "> 100 µM (inactive)"),
    ("O=C1C2=C(c3ccccc31)C(c1ccc(Cl)cc1)N1C(=O)CCSC1=N2 (stereo not given)", "> 100 µM (inactive)"),
    ("CC(=O)OCCOCNC(=S)N/N=C(\\C)c1ccco1", "> 100 µM (inactive)"),
    ("Cn1c(=O)n(CC(Br)CBr)c(=O)n(CC(Br)CBr)c1=O (stereo not given)", "21 µM (inactive)"),
    ("O=C(c1ccco1)N(C(=O)N1CCN(c2ccccc2)CC1)S(=O)(=O)c1ccccc1", "28.4 µM (inactive)"),
    ("CC1(C)OC[C@@H](C[C@H](O)COCc2ccccc2)O1", "> 100 µM (inactive)"),
    ("COc1ccccc1OCC(=N/NC(=O)c1ccncc1)/N=C/c1ccncc1", "> 100 µM (inactive)"),
]

* * *

Recorded GI50 values for a group of compounds are listed next.
Tested on: NCI-H226
Test Name: NCI tumour cell line growth inhibition, 48 h
Activity calls are given as the source filed them. No stated cut-off is given here; in the data, active = GI50 up to about 1.1 µM and inactive = higher.

# Compound, GI50
measured = [
    ("O=C(/C=C/c1ccsc1)c1ccc(Cl)cc1", "52 µM (inactive)"),
    ("COC(=O)[C@@]12CC3CN(Cc4c1[nH]c1ccccc41)C2CC3=O", "> 100 µM (inactive)"),
    ("O=C1C2C(C(=O)N1Cc1ccccc1)N(Cc1ccccc1)C(=O)N2Cc1ccccc1 (stereo unspecified)", "> 100 µM (inactive)"),
    ("Cc1[nH]c(=O)[nH]c(=S)c1C(=O)NC(C)(CO)CO", "> 100 µM (inactive)"),
    ("c1ccc(P2c3ccccc3Nc3ccccc32)cc1", "99.5 µM (inactive)"),
    ("O=C(N/N=C/c1ccc([N+](=O)[O-])cc1)c1cccc2nc3ccccc3nc12", "> 100 µM (inactive)"),
    ("Cc1ccc(/N=N/c2cc(=O)[nH]c(=O)[nH]2)cc1C", "19.1 µM (inactive)"),
    ("CC(=O)OCCOCNC(=S)N/N=C(\\C)c1ccco1", "64.6 µM (inactive)"),
    ("O=c1[nH]c(=O)n(C2CC(O)C(CO)O2)cc1C#Cc1cc(F)cc(F)c1 (stereo unspecified)", "> 100 µM (inactive)"),
    ("CCNCC(O)COc1ccc2c(c1)[n+]([O-])nc(N)[n+]2[O-] (stereo unspecified)", "59.2 µM (inactive)"),
    ("Nc1nc(Cl)cc(OCC2(CO)CCCC2)n1", "> 100 µM (inactive)"),
]

* * *

Test system: SNB-19
Test Name: NCI tumour cell line growth inhibition, 48 h
Structures can show the parent of a compound that is named as a salt. Activity calls are given as the source filed them. Cut-off read from the data, not from the text of the source: active = GI50 up to about 1.1 µM and inactive = higher.
Recorded GI50 values for a group of compounds are listed next.

# Compound, GI50
data = [
    ("CCOC(=O)CCC(NC(=O)N1CCN(c2c(C)nc(C)nc2O)CC1)C(=O)OCC (stereo not drawn)", "> 100 µM (inactive)"),
    ("COC(=O)C[S+]([O-])c1ccccc1 (stereo not drawn)", "37.8 µM (inactive)"),
    ("CCOc1ccc(-n2nnc3c(N)nc(N)nc32)cc1", "29.1 µM (inactive)"),
    ("COc1ccc(C2=NN(C(=O)c3ccc(Cl)cc3)C(O)(c3cc(F)c(Cl)cc3Cl)C2)cc1 (stereo not drawn)", "> 100 µM (inactive)"),
    ("COC(=O)c1c(C#N)c(N)nc2c1CCC2", "> 100 µM (inactive)"),
    ("COC(=O)N/N=C(/CCN1CCCC1)CC(c1ccccc1)c1c(O)c2ccccc2oc1=O (stereo not drawn)", "> 100 µM (inactive)"),
    ("O=C1C2C(C(=O)N1Cc1ccccc1)N(Cc1ccccc1)C(=O)N2Cc1ccccc1 (stereo not drawn)", "> 100 µM (inactive)"),
    ("O=C(OCCNC(=O)N1CC1)OCCNC(=O)N1CC1", "> 10 µM (inactive)"),
    ("O=C(/C=C/c1ccsc1)c1ccc(Cl)cc1", "53.8 µM (inactive)"),
    ("O=C1CSC2(CC(/C=C/c3ccccc3[N+](=O)[O-])=NN2c2cccc(S(=O)(=O)O)c2)N1c1nc2ccccc2s1 (stereo not drawn)", "15.5 µM (inactive)"),
    ("S=C1NCN2CCN(CC2)CNC(=S)C(=S)NCN2CCN(CC2)CNC1=S", "41.1 µM (inactive)"),
    ("Cc1cc2c(CC(=O)O)n[nH]c2c(C(=O)O)c1C", "> 100 µM (inactive)"),
    ("Oc1cc(-c2ccccc2)nc2cc(Cl)ccc12", "0.527 µM (active)"),
    ("Cc1ccc(-n2cc(-c3ccc(Cl)cc3)c(C#N)c2N)cc1", "17.3 µM (inactive)"),
    ("CC1(C)OC[C@@H](C[C@H](O)COCc2ccccc2)O1", "> 100 µM (inactive)"),
    ("NCCS [CYSTEAMINE HYDROCHLORIDE]", "> 100 µM (inactive)"),
    ("Nc1sccc1S(=O)(=O)c1ccsc1N", "> 100 µM (inactive)"),
    ("CC1(C)CC2=C(SC3C=CC=CC3N2)C(=O)C1C(=O)C(N)=O (stereo not drawn)", "> 100 µM (inactive)"),
    ("Cc1cc(C)nc(NC(=S)Nc2cccc(Cl)c2)c1", "> 100 µM (inactive)"),
    ("O=C(/C=C/c1ccccc1)c1ccc(NCc2nc3ccccc3[nH]2)cc1", "6.1 µM (inactive)"),
    ("C/N=C(N)/N=C(\\N)Nc1cc2ccccc2c2ccccc12", "15.8 µM (inactive)"),
    ("CC(=N/NC(=S)Nc1c(C)n(C)n(-c2ccccc2)c1=O)/C(C)=N\\NC(=S)Nc1c(C)n(C)n(-c2ccccc2)c1=O", "> 100 µM (inactive)"),
    ("CC(=O)O[C@H]1[C@@H](N2CCCCC2)C[C@H]2[C@@H]3CC=C4C[C@@H](N5CCCC5)CC[C@]4(C)[C@H]3CC[C@@]21C", "> 100 µM (inactive)"),
    ("CC1CC(=O)Nc2nc3ccccc3n21 (stereo not drawn)", "> 100 µM (inactive)"),
    ("CC1CC[C@@]2(OC1)OC1C[C@H]3[C@@H]4C/C(=N\\N(C)C)[C@@]5(O)CC(O)CC[C@]5(C)[C@H]4CC[C@]3(C)C1[C@@H]2C (stereo partly drawn)", "38.7 µM (inactive)"),
    ("N#Cc1c(O)n(-c2ccccc2)c(=O)c2c(N)n[nH]c12", "> 100 µM (inactive)"),
    ("C#CCNC(=O)CCC(N)C(=O)O (stereo not drawn)", "> 100 µM (inactive)"),
    ("Cc1nn(C(=O)Cc2ccccc2)c2c1C(c1ccc(O)cc1)SC(=N)N2 (stereo not drawn)", "> 100 µM (inactive)"),
    ("N#Cc1c(N2CCC(O)C2)c2ccccc2n2c1nc1ccccc12 (stereo not drawn)", "32.1 µM (inactive)"),
    ("C=C(C)[C@H]1CC23C(=O)C(C(=O)C(C)C)=C(O)[C@](C)(C[C@H]2C1(C)C)C3=O [LALIBINONE B]", "25.8 µM (inactive)"),
    ("CC(=O)O[C@H]1CC[C@@H](OC(C)=O)[C@H]2[C@H](O)[C@H](O)[C@@H]1n1c(=O)n(-c3ccccc3)c(=O)n12", "> 100 µM (inactive)"),
    ("CC(=O)NCc1c(C(N)=O)ncn1Cc1ccccc1", "> 100 µM (inactive)"),
    ("O=C(Nn1c(-c2ccccc2)nc2ccccc2c1=O)c1ccc([N+](=O)[O-])cc1", "> 100 µM (inactive)"),
    ("Cc1ccccc1[P+](C)(c1ccccc1C)c1ccccc1C", "8.69 µM (inactive)"),
    ("CCOC(=O)c1cc(C2CCN(CC(C)CC)C2=S)c(C(=O)/C=C(/C)N)[nH]1 (stereo not drawn)", "> 50 µM (inactive)"),
    ("[O-][S+]1Cc2ccccc2CSS1 (stereo not drawn)", "35.5 µM (inactive)"),
    ("CC12CCC(C(=O)OC1=O)C(C)(C)O2 (stereo not drawn)", "> 100 µM (inactive)"),
    ("COc1c2c(c3ccccc3c1O)C1C=CC2C1 (stereo not drawn)", "> 10 µM (inactive)"),
    ("SC1=Nc2ccccc2-c2nc(-c3cccc(Cl)c3)cc(-c3ccccc3)c2C1", "1.2 µM (inactive)"),
    ("Cc1ccc(NC(=O)C(=O)C(C#N)c2ccccc2C)cc1C (stereo not drawn)", "> 100 µM (inactive)"),
    ("COC(=O)/C(=N\\Nc1nc(S)nn1N)C(C#N)c1ccccc1 (stereo not drawn)", "> 100 µM (inactive)"),
    ("CN(C)/N=C(/CC(O)(C(F)(F)F)C(F)(F)F)c1ccc([N+](=O)[O-])cc1", "> 100 µM (inactive)"),
    ("NCCOCn1cc(Cc2cccc(OCc3ccccc3)c2)c(=O)[nH]c1=O", "> 100 µM (inactive)"),
]
